Some compounds, each annotated with its measured pIC50.
test system: Proto-oncogene tyrosine-protein kinase Src (Homo sapiens, UniProt P12931)
Sequence (P12931 2-536 limits assumed): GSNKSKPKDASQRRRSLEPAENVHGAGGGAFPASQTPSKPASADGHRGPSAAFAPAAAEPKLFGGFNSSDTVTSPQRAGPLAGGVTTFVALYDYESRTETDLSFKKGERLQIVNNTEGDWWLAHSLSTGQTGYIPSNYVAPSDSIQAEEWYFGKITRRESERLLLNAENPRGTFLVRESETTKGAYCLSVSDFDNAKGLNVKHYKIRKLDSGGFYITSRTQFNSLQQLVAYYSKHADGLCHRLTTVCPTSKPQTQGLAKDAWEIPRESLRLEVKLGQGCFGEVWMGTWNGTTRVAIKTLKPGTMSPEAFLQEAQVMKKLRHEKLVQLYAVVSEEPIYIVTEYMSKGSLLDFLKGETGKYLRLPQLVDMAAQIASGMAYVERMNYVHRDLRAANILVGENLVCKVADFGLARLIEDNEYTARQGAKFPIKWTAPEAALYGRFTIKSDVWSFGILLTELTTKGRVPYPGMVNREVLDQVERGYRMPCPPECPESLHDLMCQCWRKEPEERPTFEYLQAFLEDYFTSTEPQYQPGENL
pIC50: −log10 of the molar value.
measured attribute: pIC50

{"columns": ["compound", "result value"],
 "data": [
  ["O=P(O)(O)O", "< 1.40"],
  ["O=C(O)CC(O)(CC(=O)O)C(=O)O", "< 1.40"],
  ["O=[N+]([O-])c1cc2c(cc1C(O)P(=O)(O)O)OCO2 (stereo not drawn)", 3.52]
]}
